Kindly supply the reported TGI values for the records listed here.
- System: HCT-116 colon
- experiment_notes: NCI tumour cell line growth inhibition, 48 h

Using the record for CNC=O , report its TGI.
> 10000 µM

CC1=NN(C(=O)CC(=O)Nc2cccc(Cl)c2)C(=O)C1N=Nc1ccc(S(=O)(=O)c2ccc(N=NC3C(=O)N(C(=O)CC(=O)Nc4cccc(Cl)c4)N=C3C)cc2)cc1 (stereo not given) , same question.
> 100 µM

O=C(O)c1ccc([N+](=O)[O-])c2c(=O)c3ccccc3[nH]c12 , same question.
> 100 µM

CSc1nc(-c2cc3c(c(SC)n2)CCC3)cc2c1CCC2 , same question.
> 100 µM

O[C@]12CCCC[C@H]1CCC2 , same question.
> 100 µM

* * *

- Test system: SK-MEL-5 melanoma
- experiment_notes: NCI tumour cell line growth inhibition, 48 h
observable: GI50

Using the record for O=C(Nc1ccncc1)C(=O)c1cn(S(=O)(=O)c2ccccc2F)c2ccccc12 , report its GI50.
0.693 µM

O=C(O)c1ccc(NS(=O)(=O)c2cccc3cccnc23)cc1 , same question.
> 100 µM

Cc1ccc(C(=O)N/N=C/c2cccc(Oc3ccccc3)c2)cn1 , same question.
5.21 µM

* * *

- Test system: NCI-H226 lung
- experiment_notes: NCI tumour cell line growth inhibition, 48 h
observable: TGI

# get_value(readout= TGI, system= NCI-H226 lung) for COc1cc2c(cc1OC)[C@@H](C(O)c1ccccc1)NCC2 (some centres undefined)
> 100 µM

COC(=O)CC1(O)C(C=C(C)C)C(C(=O)OC)C(=O)C(C(=O)OC)C1C(=O)OC (centres undefined) , same question.
> 100 µM

CCOC(=O)C#Cc1ccc(C#CC(=O)OCC)cc1 , same question.
> 23.7 µM

C[C@@H]1CCN(C(=O)CC#N)C[C@@H]1N(C)c1ncnc2[nH]ccc12 , same question.
> 100 µM

Cl.Fc1c[c-]c(-c2ccccn2)c(F)c1.[Pt].c1ccc([PH+](CC[PH+](c2ccccc2)c2ccccc2)c2ccccc2)cc1 , same question.
1.13 µM

O=C(O)c1ccc(NS(=O)(=O)c2cccc3cccnc23)cc1 , same question.
> 100 µM

CN(C)c1ccc(/C=C2\N=C(c3ccc(N)cc3)OC2=O)cc1 , same question.
> 100 µM

Cc1cc2c(C(N)=O)cccc2n1-c1nc2c(c(NCc3ccccc3)n1)CCCN2 , same question.
0.332 µM

CNC1NC(=O)c2ccccc2N1Cc1ccc(F)cc1 (centres undefined) , same question.
> 100 µM

Cc1cc(N/N=C/c2nc(-c3ccccc3)oc2C)c2cc(Cl)ccc2n1 , same question.
6.88 µM

CC1(C)OC2CN(C(=O)OCc3ccccc3)C(CO)C2O1 (centres undefined) , same question.
> 100 µM

Cc1ccc(N2C(=O)CC(=O)N(NC(=O)C(C)Oc3ccccc3C)C2=S)cc1 (centres undefined) , same question.
> 100 µM

CC1CSc2nc3[nH]c(=S)[nH]c3c(=O)n2C1 (centres undefined) , same question.
> 100 µM

CCC(/C=C/c1ccccc1)=N\NC(=S)N/N=C(/C=C/c1ccccc1)CC , same question.
> 100 µM

* * *

- Test system: A549 NSCLC
- experiment_notes: NCI tumour cell line growth inhibition, 48 h
observable: TGI

Using the record for C/C=C/OC1C(C2COC(C)(C)O2)OC2OC(C)(C)OC21 (stereo unspecified) , report its TGI.
> 100 µM

N#CSCC1CC(O)(c2ccccc2)C(c2ccccc2)C(c2ccc(F)cc2)O1 (stereo unspecified) , same question.
40.5 µM

COc1ccc2c(-c3ccc(O)cc3)c(Oc3ccccc3)c(=O)oc2c1 , same question.
> 43 µM

COc1ccc(/C=C2\CNC/C(=C\c3ccc(OC)cc3)C2=O)cc1 , same question.
> 100 µM

CNC=O , same question.
> 10000 µM

COc1ccc(C(=O)c2cc(OC)c(OC)c(OC)c2)cc1O , same question.
> 100 µM

O=C(CNC(=O)c1cccc2ccccc12)Nc1ccccc1Oc1ccccc1 , same question.
> 10 µM

CC(C)(C)OC(=O)/C=C/C(=O)O/C=C/[N+](=O)[O-] , same question.
> 100 µM

CCOC(=O)[C@@H](C)C[C@H](Cc1ccccc1)NC(=O)c1csc([C@@H](C[C@H](C(C)C)N(C)C(=O)[C@H](CCC(C)C)NC(=O)[C@H]2CCCCN2C)OC(C)=O)n1 , same question.
> 33.3 µM

CC1OC(OC2C(Oc3cc(O)c4c(=O)cc(-c5ccc(O)cc5)oc4c3)OC(CO)C(O)C2O)C(O)C(O)C1O (stereo unspecified) , same question.
> 100 µM

COc1cc(-c2cn(-c3ccc(Cl)cc3)c(=O)[nH]2)cc(OC)c1OC , same question.
> 100 µM

COc1ccc(S(=O)Cc2cc(OC)ccc2OC)cc1 (stereo unspecified) , same question.
> 100 µM

COc1cccc2c1C(=O)c1ccc3cc(CO)cc(O)c3c1C2=O , same question.
2.76 µM

CCCN(CCC)C(=O)Cc1c2n(c3ccccc13)Cc1ccccc1-2 , same question.
> 100 µM

O=C(/C(Cl)=C/c1ccccc1)c1ccccc1 , same question.
34.1 µM

COc1cccc(/C=C/C(=O)c2cc3c(N)c(C(=O)Nc4cccc(Cl)c4C)sc3nc2C)c1 , same question.
> 50 µM

COc1cc2c(OC)c(c1)CCCC1=CC(=O)C=C(CCC2)C1=O , same question.
> 100 µM

Cc1ccc2c(=O)[nH]sc2c1 , same question.
43.1 µM

CC(C)(N=NC(C)(C)C1=NCCN1)C1=NCCN1 , same question.
> 100 µM

Cc1cc2c(c(C#N)c1C)NC(=O)C(CC(=O)O)C2=O (stereo unspecified) , same question.
> 100 µM

Cc1ccc(S(=O)(=O)OCC23CCC(C4CC42)C2CC23)cc1 (stereo unspecified) , same question.
> 100 µM

c1cncc(C(Nc2cccc3cccnc23)Nc2cccc3cccnc23)c1 , same question.
> 100 µM

CCOC(=O)NNC1(SC)NC(=O)c2c(cc(Cl)oc2=O)O1 (stereo unspecified) , same question.
21.1 µM

OCCCN(CCc1ccc(Cl)c(Cl)c1)CCN1CCCC1 , same question.
> 100 µM

O=C(Nc1ccc(Nc2ccncc2)cc1)c1ccc(Nc2ccnc3ccc([N+](=O)[O-])cc23)cc1 , same question.
> 100 µM

CC(=O)/C=C/c1c[nH]c(=O)[nH]c1=O , same question.
1090 µM

CCOC(=O)C(Cc1c[nH]c2cc([N+](=O)[O-])ccc12)(NC(C)=O)C(=O)OCC , same question.
> 1000 µM

O=S(=O)(O)c1ccc(N=Nc2ccc(N=Nc3ccc(/C=C/c4ccc(N=[N+]([O-])c5ccc(/C=C/c6ccc(N=Nc7ccc(N=Nc8ccc(S(=O)(=O)O)cc8)c8ccccc78)cc6S(=O)(=O)O)c(S(=O)(=O)O)c5)cc4S(=O)(=O)O)c(S(=O)(=O)O)c3)c3ccccc23)cc1 , same question.
> 100 µM

Cc1cc2nc3c(C(O)CO)nn(-c4ccccc4)c3nc2cc1C (stereo unspecified) , same question.
48.5 µM

COc1ccc(/C=N/n2c(C)n[nH]c2=O)cc1 , same question.
> 100 µM

Cc1cc(N/N=C/c2nc(-c3ccccc3)oc2C)c2cc(Cl)ccc2n1 , same question.
3.58 µM
